# System: UACC-62 melanoma
# RUN_DESCRIPTION: NCI tumour cell line growth inhibition, 48 h
Record form. Attribute: TGI. Fill in for each entry.
Give bare numbers, in µM.

Some solved cases for reference:
MOLECULE	TGI, µM
CCCCCCCCCCCCCC(=O)N(CCCCCCCCC)CC(O)C(O)C(OC1OC(CO)C(O)C(O)C1O)C(O)CO (stereo unspecified)	38.2
N=C(N)c1ccc(-c2ccc(-c3ccc(Cl)cc3Cl)s2)cc1	3.19
Fc1cc(-c2cc(-c3ccc4c(c3)OCO4)n[nH]2)c(Cl)cc1Cl	3.8
O=[N+]([O-])c1cccc2nccc(NCCCO)c12	23.3
CCN(CC)C(=S)[S][Bi]([S]C(=S)N(CC)CC)[S]C(=S)N(CC)CC	0.806

Now examine the next entry.
For the molecule shown here, `C[C@@H](Nc1nc(Nc2ccc(F)c(Cl)c2)nc2ccccc12)C1CC1` , give the reported TGI.
14.3

---

# System: HS 578T breast
# RUN_DESCRIPTION: NCI tumour cell line growth inhibition, 48 h
Record form. Attribute: TGI. Fill in for each entry.

Some solved cases for reference:
COMPOUND	REPORTED_RESULT
Cc1cccc(Cc2cnc(NC(=O)CCc3ccc(C)o3)s2)c1	> 95.3 µM
CCOc1ccc2c(c1)c(=O)c1c(NCCN(CC)CC)ccc3nnn2c31	> 100 µM
CSc1scc2c1/C(=N/NC(N)=O)CCC2	> 100 µM

For each listed entry, give its TGI.
1. Cc1ccc(N=C2C(=Nc3ccc(C)cc3)N(c3ccc(C)cc3)C(=S)N2C(=O)c2ccccc2)cc1
2. Oc1c(CN2CCN(c3ccccc3)CC2)cc(Br)c2cccnc12
3. CN(C)CCCn1c(-c2nonc2N)nc2cnccc21
4. COc1ccc(N2NC(c3ccccc3)(c3ccccc3)C(C)C2=O)cc1 (centres undefined)
5. C=CC1=C(C)C2=NC1=CC1=NC(=C(CC)/C1=C\O)C=C1N=C3C(=C1C)C(=O)[C@H](C(=O)OC)C3=C1NC(=C2)[C@@H](C)[C@@H]1CCC(=O)O

> 100 µM
> 88.6 µM
> 25 µM
> 100 µM
> 100 µM

For the compound shown here, `O=C(CSc1nc2ccccc2c(=O)n1-c1ccccc1)N=Nc1c(O)[nH]c2ccc(F)cc12` , give the reported TGI.
> 100 µM

---

Record form. Attribute: TGI. Fill in for each entry.
# Tested on: NCI-H23 lung
# RUN_DESCRIPTION: NCI tumour cell line growth inhibition, 48 h

Some solved cases for reference:
MOLECULE	TGI
CS(=O)(=O)N(c1cc(-c2ccc3ncnc(Nc4cccc(Cl)c4)c3c2)cnc1Cl)S(C)(=O)=O	3.72 µM
O=c1ccc2ccc(O)cc2o1	> 100 µM
O=C(O)c1cc2ccccc2c2c1C(=O)c1ccccc1-2	> 100 µM
Cc1ccc(NC(=O)CSC(N)=O)cc1C	> 100 µM
CC(=O)Nc1ccccc1NC1CC(C)N(c2ccccc2)N1C(C)=O (configuration not stated)	> 10 µM

For each listed entry, give its TGI.
1. COc1ccc(C2=NN=C3C(c4ccccc4)=Nc4ccccc4N3C2)cc1
2. CCN(CC)CC(=N)N(CC)c1ccccc1

1: > 100 µM; 2: > 100 µM

---

# System: HCC-2998 colon
# RUN_DESCRIPTION: NCI tumour cell line growth inhibition, 48 h
Record form. Attribute: TGI. Fill in for each entry.

Some solved cases for reference:
COMPOUND	TGI
Cc1sc2nc3n(c(=O)c2c1C)N=CN(c1ccc(F)cc1)C3	> 100 µM
O=C(/C=C\c1cccc2ccccc12)c1cccc2ccccc12	28.4 µM
COC(=O)c1nn(C(=N)c2ccc(Cl)cc2)c2c1CCC2	> 100 µM
Nc1c(C(=O)Nc2cccc(Cl)c2Cl)sc2nc3c(cc12)C(=O)CCC3	> 100 µM
CC(C)=CCCC(C)C1=C(O)C(=O)C(C)=CC1=O (configuration not stated)	27.9 µM
Cc1cn(S(=O)(=O)c2ccccc2)c2c(OCc3ccccc3)cc(NS(C)(=O)=O)cc12	> 100 µM
N.N.O=P([O-])([O-])C1(P(=O)([O-])[O-])CCCCCN1.[Pt+2]	> 100 µM
COc1ccc(N2C(=O)C3c4[nH]c5ccccc5c4C4CCCCC4C3C2=O)cc1 (configuration not stated)	40.7 µM
Cc1ccc(-n2cc([Si](C)(C)C)nn2)s1	> 100 µM
CC(=O)[O-].O=C([CH-]C(=O)c1ccccc1)c1ccccc1.O=C([CH-]C(=O)c1ccccc1)c1ccccc1.[Sm+3]	14.6 µM

For each listed entry, give its TGI.
1. COc1cc(NC(=O)C2=C(N3CCOCC3)/C(=C/c3ccc(Cl)cc3)CC2)cc(OC)c1OC
2. C=C1C(=O)O[C@H]2[C@H]1CC/C(COC(=O)NCc1ccc(Cn3c(=O)sn(-c4ccccc4)c3=O)cc1)=C\CC[C@@]1(C)O[C@@H]21
3. O=C(CCC(=O)C1CCC/C1=N/O)Nc1ccc(Cl)cc1 (configuration not stated)
4. CC1(C)CC(N(C(=O)/C=C/c2ccc([N+](=O)[O-])o2)C2CCCCC2)CC(C)(C)N1
5. NC(N)=NCCCC(NC(=O)OCCCCn1ccc(N)nc1=O)C(=O)O (configuration not stated)
6. CC(=O)[CH-]C(=O)c1ccccc1.CC(=O)[CH-]C(=O)c1ccccc1.CC[O-].O=C1c2ccccc2C(=O)c2c1ccc(O)c2[O-].[Ti+4]
7. CCCCCn1c(C)cc(/C=C\c2ccc3cc(C)ccc3[n+]2C)c1C
8. CC1(C)N=C(c2ccccn2)C(c2ccccn2)=NC1(C)C

["> 100 µM", "3.82 µM", "> 100 µM", "23.6 µM", "> 100 µM", "> 100 µM", "1.51 µM", "> 100 µM"]

For each listed entry, give its TGI.
1. CCN(CC)CC(=N)N(CC)c1ccccc1
2. Cc1cccc(Cc2cnc(NC(=O)CCc3ccc(C)o3)s2)c1

1. > 100 µM
2. > 100 µM
